All figures here come from patent US20210246166A1.

Target: T1, recombinant human MASP1 active protease (amino acids 297-699, C-terminal His Tag) (human, UniProt P48740 297-699)
T1 sequence: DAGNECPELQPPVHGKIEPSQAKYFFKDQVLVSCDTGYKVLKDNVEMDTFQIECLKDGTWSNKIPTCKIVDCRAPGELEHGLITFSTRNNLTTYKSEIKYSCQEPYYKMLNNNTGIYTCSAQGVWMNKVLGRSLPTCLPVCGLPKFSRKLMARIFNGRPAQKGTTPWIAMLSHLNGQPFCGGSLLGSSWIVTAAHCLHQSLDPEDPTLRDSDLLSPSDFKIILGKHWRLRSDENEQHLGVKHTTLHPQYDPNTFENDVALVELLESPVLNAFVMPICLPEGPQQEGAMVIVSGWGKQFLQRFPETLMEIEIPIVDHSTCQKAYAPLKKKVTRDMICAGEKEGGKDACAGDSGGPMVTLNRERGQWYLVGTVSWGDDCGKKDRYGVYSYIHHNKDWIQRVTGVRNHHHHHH
Test: cell-based or functional assay
Bridge positions count the residues as written; N and C are the ends. Square brackets hold non-standard residues; d marks the D form. Ends that are not written are not given here. Oic = O=C(O)[C@@H]1C[C@@H]2CCCC[C@@H]2N1; Pen = CC(C)(S)[C@H](N)C(=O)O; PEG2 = NCCOCCOCCC(=O)O; Sar = CNCC(=O)O
Below, each entry is listed with its recorded human MASP1 IC50.
The figure you give is taken to be in nM; do not add the unit.

{"binder": "[Sar]ICSRSLP[Oic]I[Pen]IP[PEG2]-NH2 (disulfide 3-11; N-terminus assumed; SMILES CC[C@H](C)[C@H](NC(=O)CNC)C(=O)N[C@H]1CSSC(C)(C)[C@@H](C(=O)N[C@H](C(=O)N2CCC[C@H]2C(=O)NCCOCCOCCC(N)=O)[C@@H](C)CC)NC(=O)[C@H]([C@@H](C)CC)NC(=O)[C@@H]2C[C@@H]3CCCC[C@@H]3N2C(=O)[C@@H]2CCCN2C(=O)[C@H](CC(C)C)NC(=O)[C@H](CO)NC(=O)[C@H](CCCNC(=N)N)NC(=O)[C@H](CO)NC1=O) [((N-Me)G)-IC+SRSLP-(Oic)-I-(Pen)+IP-(PEG1(10 atoms))-NH2]", "unit_string": "nM", "human MASP1 IC50": 2.3}

# context switch: different binder, same human MASP1 IC50
Asked: Specify reported human MASP1 IC50 for the binder shown: AICSRSLP[Oic]I[Pen]IP-NH2 (disulfide 3-11; N-terminus assumed; SMILES CC[C@H](C)[C@H](NC(=O)[C@H](C)N)C(=O)N[C@H]1CSSC(C)(C)[C@@H](C(=O)N[C@H](C(=O)N2CCC[C@H]2C(N)=O)[C@@H](C)CC)NC(=O)[C@H]([C@@H](C)CC)NC(=O)[C@@H]2C[C@@H]3CCCC[C@@H]3N2C(=O)[C@@H]2CCCN2C(=O)[C@H](CC(C)C)NC(=O)[C@H](CO)NC(=O)[C@H](CCCNC(=N)N)NC(=O)[C@H](CO)NC1=O) [AIC+SRSLP-(Oic)-I-(Pen)+IP-NH2]
Given back: 2.2
